System: Fibroblast
assay.protocol: Multiplex assay against human fibroblast
Format: toxicity, cell-based
experimental.parameters: 48 h, 1 µM, compound concentration 1 uM, replicate 2
outcome.measure: Population Pyknosed Nuclei (%)
State just the number; it will be interpreted in %.

Lab note: Fibroblast assay, enter Population Pyknosed Nuclei (%) for Cc1ccc(C(C)(O)c2nc3ccccc3s2)c(C)c1 (stereo unspecified) here
14

Lab note: Fibroblast assay, enter Population Pyknosed Nuclei (%) for CN(C)CCCc1cc(C(=O)Nc2ccc(-c3ccncc3)cc2)ccc1O.Cl.Cl here
21

Lab note: Fibroblast assay, enter Population Pyknosed Nuclei (%) for CCCC(CCC)C(=O)O [VALPROIC ACID] here
19

Lab note: Fibroblast assay, enter Population Pyknosed Nuclei (%) for C[C@H](NC(=O)c1c(C(F)F)nn(C)c1Oc1cccc(C(F)(F)F)c1)c1ccc(C(=O)O)cc1 [PALUPIPRANT] here
19

Lab note: Fibroblast assay, enter Population Pyknosed Nuclei (%) for C[C@H]1[C@H]2CC[C@H]3[C@@H]4CC=C5C[C@@H](N(C)C)CC[C@]5(C)[C@H]4CC[C@]23CN1C [CONESSINE] here
16

Lab note: Fibroblast assay, enter Population Pyknosed Nuclei (%) for COc1c(C)cc(NC(=O)c2nn(Cc3ccc(F)cc3)c3c2CN(C(=O)c2ccc[nH]2)C[C@]3(C)C(N)=O)cc1C here
19

Lab note: Fibroblast assay, enter Population Pyknosed Nuclei (%) for CN1CCN2c3ncccc3Cc3ccccc3C2C1 (stereo unspecified) [MIRTAZAPINE] here
17

Lab note: Fibroblast assay, enter Population Pyknosed Nuclei (%) for CC(C)(C)c1ccc(S(=O)(=O)Nc2ccc(Cl)cc2C(=O)c2cc[n+]([O-])cc2)cc1 [VERCIRNON] here
11

Lab note: Fibroblast assay, enter Population Pyknosed Nuclei (%) for O=C(O)Cc1ccccc1Nc1c(Cl)cccc1Cl [DICLOFENAC] here
10

Lab note: Fibroblast assay, enter Population Pyknosed Nuclei (%) for Cl.Clc1ccc2nsnc2c1NC1=NCCN1 [TIZANIDINE HYDROCHLORIDE] here
23

Lab note: Fibroblast assay, enter Population Pyknosed Nuclei (%) for N[C@@]1(C(=O)O)CO[C@H]2[C@H](C(=O)O)[C@H]21 [LY-379268] here
11

Lab note: Fibroblast assay, enter Population Pyknosed Nuclei (%) for Oc1c(CN2CCN(c3ccccn3)CC2)cc(Cl)c2cccnc12 here
7

Lab note: Fibroblast assay, enter Population Pyknosed Nuclei (%) for CSc1ccccc1N1CCN(CCCCCC(=O)NC2CCCc3ccccc32)CC1.Cl (stereo unspecified) here
20

Lab note: Fibroblast assay, enter Population Pyknosed Nuclei (%) for O=C(O)c1cc2ccccc2c(Cc2c(O)c(C(=O)O)cc3ccccc23)c1O [PAMOIC ACID] here
17

Lab note: Fibroblast assay, enter Population Pyknosed Nuclei (%) for CC[C@H]1OC(=O)[C@H](C)[C@@H](O[C@H]2C[C@@](C)(OC)[C@@H](O)[C@H](C)O2)[C@H](C)[C@@H](O[C@@H]2O[C@H](C)C[C@H](N(C)C)[C@H]2O)[C@@]2(C)CC(C)=C(O2)[C@H](C)[C@@H](O)[C@]1(C)O here
13

Lab note: Fibroblast assay, enter Population Pyknosed Nuclei (%) for COc1ccc2c(c1)C(C(=O)N(Cc1ccc(N(C)C)cc1)c1ccc(C(C)C)cc1)CCC2.Cl (stereo unspecified) here
12
